Experimental Target: His-tagged KRAS G12D protein (Homo sapiens, UniProt P01116, G12D)
Sequence (P01116 1-188 isoform P01116-2 G12D): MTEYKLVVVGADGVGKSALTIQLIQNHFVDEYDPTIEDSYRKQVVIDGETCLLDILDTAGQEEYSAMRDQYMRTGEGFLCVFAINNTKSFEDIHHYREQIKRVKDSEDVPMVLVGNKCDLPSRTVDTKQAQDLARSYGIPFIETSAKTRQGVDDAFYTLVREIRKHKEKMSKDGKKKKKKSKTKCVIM
Assay Details: KRAS G12D TR-FRET Assay
Assay type: binding
Form field: IC50 (one value per entry).
Return type: number; implicit unit nM.

Request: Quick check: IC50 of Oc1ccc(-c2c(Cl)cc3c(N4C[C@H]5CC[C@@H](C4)N5)nc(OC[C@@]45CCCN4C[C@H](F)C5)nc3c2F)c2ccccc12 [Example 80] ?
Result: 10

----------
Experimental Target: His-tagged KRAS G12D protein (Homo sapiens, UniProt P01116, G12D)
Assay Details: KRAS G12D TR-FRET Assay
Method: Compounds of interest were prepared in a dose-response titration in DMSO, and 80 nL were added via Labcyte Echo to each well of a 384-well plate (Perkin Elmer 6008280). […] The plate was incubated for 30 minutes at room temperature. […] Plates were read using PerkinElmer EnVision (ex: 320 nm, em1: 665 nm, em2: 615 nm) and em1/em2 data was used to generate curve fits using a 4-parameter logistic model to calculate IC50 values.
// values below are reported IC50

Worked cases, IC50 given:
Substance Smiles: Fc1c(-c2c(C(F)(F)F)ccc3[nH]ncc23)ccc2c(N3C[C@H]4CC[C@@H](C3)N4)nc(OC[C@@]34CCCN3C[C@H](F)C4)nc12
IC50: 14 nM
--
Substance Smiles: Nc1cc2ccccc2c(-c2ccc3c(N4CC5CCC(C4)N5)nc(OC[C@@]45CCCN4C[C@H](F)C5)nc3c2F)n1
IC50: 60 nM

Request: Missing value: IC50, His-tagged KRAS G12D protein (Homo sapiens, UniProt P01116, G12D), entry CCc1c(F)ccc2cc(O)cc(-c3ccc4c(N5C[C@H]6CC[C@@H](C5)N6)cc(OC[C@@]56CCCN5C[C@H](F)C6)nc4c3)c12 . Fill in?
Result: 44 nM

Request: // repeat for Fc1c(-c2cccc3cccc(Cl)c23)ccc2c(N3C[C@H]4CC[C@@H](C3)N4)nc(OC[C@@]34CCCN3C[C@H](F)C4)nc12 and report
Result: 8 nM

Request: Same read-out for CCc1c(F)ccc2cc(O)cc(-c3cc4nc(OC[C@@]56CCCN5C[C@H](F)C6)nc(N5C[C@H]6CC[C@@H](C5)N6)c4cc3O)c12 ?
Result: 3 nM

Request: Now try CCc1c(F)ccc2cc(O)cc(-c3c(Cl)cc4c(N5C[C@@H]6CC[C@H]5CN6)nc(OC[C@@]56CCCN5C[C@H](F)C6)nc4c3F)c12 .
Result: 4 nM
